experimental_system: T1, Cyno B7-H4-Fc (Cyno B7H4 ECD, FcTM_6His) (cynomolgus monkey)
T1 construct: extracellular domain; also called cynomolgus B7-H4-Fc
experiment_description: HTRF binding, murine IgG1
pEC50: −log10 of the molar value.
property_label: pEC50

binder: ZY0EOB-F05 murine IgG1 (antibody, V domains shown) VH: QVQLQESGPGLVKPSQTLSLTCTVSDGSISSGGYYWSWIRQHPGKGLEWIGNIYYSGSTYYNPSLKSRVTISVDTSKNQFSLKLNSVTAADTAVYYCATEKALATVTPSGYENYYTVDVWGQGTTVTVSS VL: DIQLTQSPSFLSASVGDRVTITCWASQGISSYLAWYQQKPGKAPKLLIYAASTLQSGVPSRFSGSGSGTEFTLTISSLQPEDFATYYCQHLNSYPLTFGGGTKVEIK
property_label: pEC50
experimental_result: 9.49
